Origin of values: patent US10189818B2

Experiment: Pharmacokinetic comparison after 1-hour IV infusion, plasma concentrations by LC-MS/MS
Assay type: in vivo, male Sprague-Dawley rats
Conditions: male, Sprague-Dawley, in vivo; rat, single 10 mg/kg 1-hour intravenous infusion, 24 hours after start of infusion
Observable: concentration at 24 h

[
  {
    "Compound": "COc1cccc(OCCCN)c1-c1cc(Nc2cnc(C#N)cn2)n[nH]1.CS(=O)(=O)O.O [Methanesulfonic acid Monohydrate]",
    "Value measured": "3 ng/mL"
  }
]

---

Experiment: Pharmacokinetic comparison after 1-hour IV infusion, plasma concentrations by LC-MS/MS
Assay type: in vivo, male Sprague-Dawley rats
Conditions: male, Sprague-Dawley, plasma; rat, single 10 mg/kg 1-hour intravenous infusion, 4 hours after start of infusion
Protocol: Evaluate the noncompartmental pharmacokinetic parameters of the methanesulfonic acid monohydrate and (S)-lactate monohydrate salts of 5-(5-(2-(3-aminopropoxy)-6-methoxyphenyl)-1H-pyrazol-3-ylamino)pyrazine-2-carbonitrile after intravenous (IV) infusion of 10 mg/kg of the methanesulfonic acid monohydrate salt (10 mg/kg, formulated in Captisol®) or of the (S)-lactate monohydrate salt (formulated in trehalose) into the femoral vein cannula of fed male Sprague-Dawley rats for 1 hour. […]

[
  {
    "Compound": "COc1cccc(OCCCN)c1-c1cc(Nc2cnc(C#N)cn2)n[nH]1.C[C@H](O)C(=O)O [(S)-Lactate Monohydrate]",
    "concentration at 4 h, ng/mL": 73.8
  }
]

---

Assay: Pharmacokinetic comparison after 1-hour IV infusion, plasma concentrations by LC-MS/MS
Assay type: in vivo, male Sprague-Dawley rats
Details: male, Sprague-Dawley, in vivo; rat, single 10 mg/kg 1-hour intravenous infusion, 4 hours after start of infusion

[
  {
    "Compound": "COc1cccc(OCCCN)c1-c1cc(Nc2cnc(C#N)cn2)n[nH]1.CS(=O)(=O)O.O [Methanesulfonic acid Monohydrate]",
    "concentration at 4 h": "67.5 ng/mL"
  }
]

---

Assay: Solubility screen of the salts in aqueous acid solution, HPLC
Format: physicochemical
Conditions: aqueous (S)-lactic acid solution, pH 2.46, aqueous buffer, thermodynamic from solid; in water, measured at a pH of 2.46; 0.104 M (S)-lactic acid, room temperature, one week
Observable: solubility at 1 week

[
  {
    "Compound": "COc1cccc(OCCCN)c1-c1cc(Nc2cnc(C#N)cn2)n[nH]1.C[C@H](O)C(=O)O [(S)-Lactate Monohydrate]",
    "Observable": "solubility at 1 week",
    "Value measured": "> 20 mg/mL"
  }
]

---

Assay: Solubility screen of the salts in aqueous acid solution, HPLC
Type: physicochemical
Settings: aqueous buffer, thermodynamic from solid; water solubility comparison; slurry in approx. 0.1 M aqueous acid, room temperature, one week
Observable: solubility at 1 week (µg/mL)

[
  {
    "Molecule": "COc1cccc(OCCCN)c1-c1cc(Nc2cnc(C#N)cn2)n[nH]1.CS(=O)(=O)O.O [Methanesulfonic acid Monohydrate]",
    "Measurement unit": "µg/mL",
    "Value measured": 6630
  },
  {
    "Molecule": "COc1cccc(OCCCN)c1-c1cc(Nc2cnc(C#N)cn2)n[nH]1.Cl.Cl [Di-HCl]",
    "Measurement unit": "µg/mL",
    "Value measured": 107
  }
]

---

Test: Pharmacokinetic comparison after 1-hour IV infusion, plasma concentrations by LC-MS/MS
Type: in vivo, male Sprague-Dawley rats
Settings: male, Sprague-Dawley, in vivo; rat, single 10 mg/kg 1-hour intravenous infusion, 1.25 hours after start of infusion

[
  {
    "Compound": "COc1cccc(OCCCN)c1-c1cc(Nc2cnc(C#N)cn2)n[nH]1.CS(=O)(=O)O.O [Methanesulfonic acid Monohydrate]",
    "concentration at 1.25 h [ng/mL]": 319
  }
]
